Read-out: Plasminogen activator inhibitor-1 (PAI1), SERPINE1 (gene 5054)
measurement-notes: BSK_hDFCGF_PAI1: BioMAP Diversity Plus: hDFCGF Assay for Plasminogen activator inhibitor-1 (PAI1) Biomarker Activity (AID 2283066)
test-settings: primary human foreskin fibroblasts; actives raise or lower the signal
Activity calls are given as the source filed them. How the source made its calls: active means hit-call score of the fitted dose curve at least 0.9, where 1 is the maximum; inactive means score below 0.9.
Return exactly one item of y = active, n = inactive

- compound: "CCN(CC)N=O"
  class-label: "n"
- compound: "c1ccc(NNc2ccccc2)cc1"
  class-label: "n"
- compound: "C[C@]12C=CC3=C4CCC(=O)C=C4CC[C@H]3[C@@H]1CC[C@@H]2O"
  class-label: "y"
- compound: "OCCOCCO"
  class-label: "n"
- compound: "C1=Cc2cccc3cccc1c23"
  class-label: "n"
- compound: "CNC(=O)Oc1cccc2c1OC(C)(C)C2"
  class-label: "n"
- compound: "ClCCOCCCl"
  class-label: "n"
- compound: "O=C1CCCO1"
  class-label: "n"

Returns: the outcome recorded for CCCCCCCCn1sccc1=O in this assay.
y

And for O=C(N[C@H](c1ccccc1)[C@@H]1CN2CCC1CC2)c1c(Cl)ccc(C(F)(F)F)c1Cl ?
n

Moving on to CN(C)C(=O)Nc1ccc(Cl)cc1
n

Proceed to CCOc1cccc(C2(N3CCN(c4ccccc4)CC3)CCC(C)CC2)c1 (stereo unspecified)
n

What would you report for C[N+](C)(C)CC1CO1 (stereo unspecified) ?
n

And then COP(=S)(OC)SCN1C(=O)c2ccccc2C1=O , what is it?
n

Okay, and N#CC(Br)(Br)C(N)=O ?
n

Same again, this time with N#CC(Br)Br
n
